Target: Prostaglandin E synthase (Mus musculus) (UniProt Q9JM51)
Sequence (Q9JM51 whole entry): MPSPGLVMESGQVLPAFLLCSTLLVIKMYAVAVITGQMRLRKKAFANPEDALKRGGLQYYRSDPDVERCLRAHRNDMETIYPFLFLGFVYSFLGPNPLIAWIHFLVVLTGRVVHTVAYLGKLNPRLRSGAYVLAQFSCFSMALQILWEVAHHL
Assay: Inhibition of mPGES-1 in mouse RAW264.7 cells using PGH2 as substrate assessed as inhibition of LPS-stimulated PGE2 production at 5 uM preincubated for 30 mins followed by substrate addition measured after 1 min by LC-MS/MS analysis
Assay type: cell-based
measure: inhibition (%)

Record excerpt, results attached:
smiles.str | scale.unit | inhibition
O=C(O)c1ccc(S(=O)(=O)N(Cc2ccc(-c3ccccc3)cc2)CC2CCCCC2)cc1 | % | 44.4
O=C(O)c1ccc(S(=O)(=O)N(Cc2ccccc2)c2ccc(Oc3ccccc3)cc2)cc1 | % | 74.7

A = O=C(O)c1ccc(S(=O)(=O)N(Cc2ccccc2)Cc2ccc(Oc3ccccc3)cc2)cc1
B = COc1ccc(CN(Cc2ccccc2)S(=O)(=O)c2ccc(C(=O)O)cc2)cc1
Pick one, A or B : lowest reported inhibition. Kindly state the label of the option you pick.
B

The origin of these recorded values is ChEMBL document CHEMBL3091291.
